Data origin, for the record: ChEMBL document CHEMBL3596146

TARGET_OR_SYSTEM: Peroxisome proliferator-activated receptor alpha (Homo sapiens)
Sequence (whole entry): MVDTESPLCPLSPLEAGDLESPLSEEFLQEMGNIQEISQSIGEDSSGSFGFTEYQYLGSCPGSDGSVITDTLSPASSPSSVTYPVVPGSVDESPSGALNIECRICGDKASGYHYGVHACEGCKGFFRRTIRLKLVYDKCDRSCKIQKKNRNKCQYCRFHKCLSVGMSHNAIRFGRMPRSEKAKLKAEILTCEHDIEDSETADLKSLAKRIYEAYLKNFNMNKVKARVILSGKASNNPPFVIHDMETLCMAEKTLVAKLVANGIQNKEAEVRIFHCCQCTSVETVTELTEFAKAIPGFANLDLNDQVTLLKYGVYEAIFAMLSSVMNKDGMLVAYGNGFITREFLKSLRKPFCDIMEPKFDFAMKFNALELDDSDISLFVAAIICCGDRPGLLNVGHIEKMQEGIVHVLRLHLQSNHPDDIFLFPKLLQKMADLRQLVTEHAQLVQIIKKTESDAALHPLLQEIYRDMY
ASSAY_PROCEDURE: Agonist activity at PPAR-alpha (unknown origin) expressed in CV-1 cells co-transfected with tk-PPRE-luciferase vector at 10 uM after 24 hrs by transactivation assay relative to GW7647
Assay type: cell-based

| CHEMICAL_SMILES | TARGET_OR_SYSTEM | Emax |
| --- | --- | --- |
| O=C(O)Cc1c[nH]c2ccc(OCCCOc3cccc(Oc4ccccc4)c3)cc12 | Peroxisome proliferator-activated receptor alpha (Homo sapiens) | 45.4% |
| Cc1cccc(OCCOc2ccc3c(c2)c(CC(=O)O)cn3Cc2ccccc2)c1 | Peroxisome proliferator-activated receptor alpha (Homo sapiens) | 10.9% |
| O=C(O)Cc1cn(Cc2ccccc2)c2ccc(OCCCOc3cccc(Oc4ccccc4)c3)cc12 | Peroxisome proliferator-activated receptor alpha (Homo sapiens) | 13.9% |
| COc1ccc(COc2cccc(OCCOc3ccc4[nH]cc(CC(=O)O)c4c3)c2)cc1 | Peroxisome proliferator-activated receptor alpha (Homo sapiens) | 87.5% |
| Cc1ccc(COc2cccc(OCCCOc3ccc4[nH]cc(CC(=O)O)c4c3)c2)cc1 | Peroxisome proliferator-activated receptor alpha (Homo sapiens) | 69.3% |

----------
TARGET_OR_SYSTEM: Peroxisome proliferator-activated receptor alpha (Homo sapiens)
ASSAY_PROCEDURE: Agonist activity at PPAR-alpha (unknown origin) expressed in CV-1 cells co-transfected with tk-PPRE-luciferase vector after 24 hrs by transactivation assay

| CHEMICAL_SMILES | EC50, µM |
| --- | --- |
| COc1ccc(COc2cccc(OCCOc3ccc4c(c3)c(CC(=O)O)cn4Cc3ccccc3)c2)cc1 | 5.9 |
| Cc1ccc(COc2cccc(OCCCOc3ccc4[nH]cc(CC(=O)O)c4c3)c2)cc1 | 13.8 |
| O=C(O)Cc1cn(Cc2ccccc2)c2ccc(OCCCOc3cccc(OCc4ccc(Cl)cc4)c3)cc12 | 8.6 |
| Cc1ccc(COc2cccc(OCCCOc3ccc4c(CC(=O)O)cn(Cc5ccccc5)c4c3)c2)cc1 | 19.2 |

----------
TARGET_OR_SYSTEM: Peroxisome proliferator-activated receptor delta (Homo sapiens)
ASSAY_PROCEDURE: Agonist activity at PPAR-delta (unknown origin) expressed in HEK293t cells co-transfected with tk-PPRE-luciferase vector at 10 uM after 24 hrs by transactivation assay relative to GW0742
Assay type: cell-based
CONDITION_DESCRIPTION: HEK-293T
# Emax listing for each entry below

| CHEMICAL_SMILES | UNIT_ANNOTATION | Emax |
| --- | --- | --- |
| COc1ccc(Oc2cccc(OCCCOc3ccc4c(c3)c(CC(=O)O)cn4Cc3ccccc3)c2)cc1 | % | 59.5 |
| O=C(O)Cc1c[nH]c2ccc(OCCCOc3cccc(OCc4ccc(F)cc4)c3)cc12 | % | 32 |
| COc1ccc(COc2cccc(OCCOc3ccc4[nH]cc(CC(=O)O)c4c3)c2)cc1 | % | 70 |
| O=C(O)Cc1c[nH]c2ccc(OCCCOc3cccc(OCc4ccc(C(F)(F)F)cc4)c3)cc12 | % | 71.9 |
| Cc1ccc(COc2cccc(OCCCOc3ccc4c(c3)c(CC(=O)O)cn4Cc3ccccc3)c2)cc1 | % | 83 |
| Cc1ccc(COc2cccc(OCCCOc3ccc4[nH]cc(CC(=O)O)c4c3)c2)cc1 | % | 84.1 |
| CC(C)=CCn1cc(CC(=O)O)c2cc(OCCCOc3cccc(OCc4ccc(Cl)cc4)c3)ccc21 | % | 65.2 |
| Cc1ccc(COc2ccccc2OCCCOc2ccc3c(CC(=O)O)c[nH]c3c2)cc1 | % | 64.6 |
| Cc1ccc(COc2cccc(OCCOc3ccc4[nH]cc(CC(=O)O)c4c3)c2)cc1 | % | 76.6 |

----------
TARGET_OR_SYSTEM: Peroxisome proliferator-activated receptor delta (Homo sapiens) (UniProt Q03181)
Sequence (Q03181 whole entry): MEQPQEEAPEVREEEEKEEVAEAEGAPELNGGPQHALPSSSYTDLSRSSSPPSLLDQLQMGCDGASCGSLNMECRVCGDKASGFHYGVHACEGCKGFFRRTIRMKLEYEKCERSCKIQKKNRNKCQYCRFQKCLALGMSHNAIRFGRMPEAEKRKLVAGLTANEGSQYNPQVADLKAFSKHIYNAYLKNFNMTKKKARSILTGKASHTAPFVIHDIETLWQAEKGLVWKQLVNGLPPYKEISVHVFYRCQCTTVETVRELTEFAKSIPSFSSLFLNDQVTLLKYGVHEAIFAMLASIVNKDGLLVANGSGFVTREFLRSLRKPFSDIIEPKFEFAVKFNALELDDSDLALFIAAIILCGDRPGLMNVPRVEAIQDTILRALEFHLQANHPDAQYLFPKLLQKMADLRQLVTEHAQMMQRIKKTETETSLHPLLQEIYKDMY
ASSAY_PROCEDURE: Agonist activity at PPAR-delta (unknown origin) expressed in HEK293t cells co-transfected with tk-PPRE-luciferase vector at 10 uM after 24 hrs by transactivation assay relative to GW0742
Type: cell-based
CONDITION_DESCRIPTION: HEK-293T
Recorded Emax, one value per entry.
ENDPOINT: Emax (%)

| CHEMICAL_SMILES | UNIT_ANNOTATION | RECORDED_NUMBER |
| --- | --- | --- |
| Cc1cccc(OCCOc2ccc3c(c2)c(CC(=O)O)cn3Cc2ccccc2)c1 | % | 13.2 |
| O=C(O)Cc1c[nH]c2ccc(OCCCOc3ccc(OCc4ccc(Cl)cc4)cc3)cc12 | % | 89.5 |
| O=C(O)Cc1cn(Cc2ccccc2)c2ccc(OCCCOc3cccc(Oc4ccc(Cl)cc4)c3)cc12 | % | 88.8 |
| O=C(O)Cc1cn(Cc2ccccc2)c2ccc(OCCOc3cccc(OCc4ccc(Cl)cc4)c3)cc12 | % | 106 |
| O=C(O)Cc1cn(Cc2ccccc2)c2ccc(OCCCOc3cccc(OCc4ccc(Cl)cc4Cl)c3)cc12 | % | 44.2 |
| O=C(O)Cc1cn(Cc2ccccc2)c2ccc(OCCCOc3cccc(Oc4ccc(C(F)(F)F)cc4)c3)cc12 | % | 53.2 |
| Cn1cc(CC(=O)O)c2cc(OCCCOc3cccc(OCc4ccc(Cl)cc4)c3)ccc21 | % | 70.8 |

----------
Overview of recorded Retention_time for various molecules
ASSAY_PROCEDURE: Retention time of the compound by HPLC analysis
Type: physicochemical

| CHEMICAL_SMILES | Retention_time [min] |
| --- | --- |
| Cc1cccc(OCCOc2ccc3c(c2)c(CC(=O)O)cn3Cc2ccccc2)c1 | 8.19 |
| COc1ccc(COc2cccc(OCCOc3ccc4[nH]cc(CC(=O)O)c4c3)c2)cc1 | 5.651 |
| O=C(O)Cc1c[nH]c2ccc(OCCCOc3cccc(OCc4ccc(F)cc4)c3)cc12 | 7.106 |
| Cc1ccc(COc2cccc(OCCCOc3ccc4c(CC(=O)O)c[nH]c4c3)c2)cc1 | 9.005 |

----------
ASSAY_PROCEDURE: Retention time of the compound by HPLC analysis
Type: physicochemical
Recorded Retention_time values for a group of compounds are listed next.

| CHEMICAL_SMILES | Retention_time, min |
| --- | --- |
| Cc1ccc(COc2cccc(OCCOc3ccc4[nH]cc(CC(=O)O)c4c3)c2)cc1 | 7.375 |
| CC(C)=CCn1cc(CC(=O)O)c2cc(OCCCOc3cccc(OCc4ccc(Cl)cc4)c3)ccc21 | 30.169 |
| Cc1ccc(COc2cccc(OCCOc3ccc4c(c3)c(CC(=O)O)cn4Cc3ccccc3)c2)cc1 | 16.602 |
| COc1ccc(COc2cccc(OCCOc3ccc4c(c3)c(CC(=O)O)cn4Cc3ccccc3)c2)cc1 | 10.127 |
| Cc1ccc(COc2cccc(OCCCOc3ccc4c(c3)c(CC(=O)O)cn4Cc3ccccc3)c2)cc1 | 21.719 |
| O=C(O)Cc1cn(Cc2ccccc2)c2ccc(OCCCOc3ccccc3OCc3ccc(Cl)cc3)cc12 | 15.313 |
| Cc1ccc(Oc2cccc(OCCCOc3ccc4c(c3)c(CC(=O)O)cn4Cc3ccccc3)c2)cc1 | 23.472 |
| O=C(O)Cc1c[nH]c2ccc(OCCCOc3cccc(OCc4ccc(Cl)cc4)c3)cc12 | 9.64 |
| O=C(O)Cc1c[nH]c2ccc(OCCOc3cccc(OCc4ccc(Cl)cc4)c3)cc12 | 7.623 |
| O=C(O)Cc1cn(Cc2ccccc2)c2ccc(OCCCOc3ccc(OCc4ccc(Cl)cc4)cc3)cc12 | 22.989 |
| O=C(O)Cc1c[nH]c2ccc(OCCCOc3cccc(Oc4ccc(Cl)cc4)c3)cc12 | 9.322 |
| O=C(O)Cc1cn(Cc2ccccc2)c2ccc(OCCCOc3cccc(Oc4ccccc4)c3)cc12 | 18.216 |
| Cn1cc(CC(=O)O)c2cc(OCCCOc3cccc(OCc4ccc(Cl)cc4)c3)ccc21 | 13.52 |
| Cc1ccc(COc2ccc(OCCCOc3ccc4c(c3)c(CC(=O)O)cn4Cc3ccccc3)cc2)cc1 | 21.33 |
| Cc1ccc(COc2ccccc2OCCCOc2ccc3c(CC(=O)O)c[nH]c3c2)cc1 | 7.422 |
| C=CCn1cc(CC(=O)O)c2cc(OCCCOc3cccc(OCc4ccc(Cl)cc4)c3)ccc21 | 15.057 |
| Cc1ccc(Oc2cccc(OCCCOc3ccc4[nH]cc(CC(=O)O)c4c3)c2)cc1 | 9.409 |
| O=C(O)Cc1cn(Cc2ccccc2)c2ccc(OCCCOc3cccc(OCc4ccc(C(F)(F)F)cc4)c3)cc12 | 24.08 |
| Cc1cccc(OCCOc2ccc3[nH]cc(CC(=O)O)c3c2)c1 | 4.444 |
| COc1ccc(Oc2cccc(OCCCOc3ccc4c(c3)c(CC(=O)O)cn4Cc3ccccc3)c2)cc1 | 7.257 |
| O=C(O)Cc1c[nH]c2ccc(OCCOc3cccc(OCc4ccc(C(F)(F)F)cc4)c3)cc12 | 7.193 |
| O=C(O)Cc1c[nH]c2ccc(OCCCOc3ccc(OCc4ccc(Cl)cc4)cc3)cc12 | 9.166 |
| O=C(O)Cc1cn(Cc2ccccc2)c2ccc(OCCOc3cccc(OCc4ccc(Cl)cc4)c3)cc12 | 17.1 |
| Cc1ccc(COc2cccc(OCCCOc3ccc4c(CC(=O)O)cn(Cc5ccccc5)c4c3)c2)cc1 | 18.125 |
| O=C(O)Cc1c[nH]c2ccc(OCCCOc3ccccc3OCc3ccc(Cl)cc3)cc12 | 7.547 |
| O=C(O)Cc1cn(Cc2ccccc2)c2ccc(OCCOc3cccc(OCc4ccc(C(F)(F)F)cc4)c3)cc12 | 18.375 |
| Cc1ccc(COc2cccc(OCCCOc3ccc4[nH]cc(CC(=O)O)c4c3)c2)cc1 | 8.984 |
| O=C(O)Cc1cn(Cc2ccccc2)c2ccc(OCCCOc3cccc(OCc4ccc(Cl)cc4)c3)cc12 | 24.111 |
| O=C(O)Cc1cn(Cc2ccccc2)c2ccc(OCCCOc3cccc(Oc4ccc(Cl)cc4)c3)cc12 | 25.456 |
| O=C(O)Cc1c[nH]c2ccc(OCCCOc3cccc(OCc4ccccc4)c3)cc12 | 6.379 |
| Cc1ccc(COc2ccccc2OCCCOc2ccc3c(c2)c(CC(=O)O)cn3Cc2ccccc2)cc1 | 14.49 |
| O=C(O)Cc1c[nH]c2ccc(OCCOc3cccc(Cl)c3)cc12 | 4.608 |
| CCCn1cc(CC(=O)O)c2cc(OCCCOc3cccc(OCc4ccc(Cl)cc4)c3)ccc21 | 21.212 |
| O=C(O)Cc1c[nH]c2cc(OCCCOc3cccc(OCc4ccc(Cl)cc4)c3)ccc12 | 8.836 |
| O=C(O)Cc1cn(Cc2ccccc2)c2cc(OCCCOc3cccc(OCc4ccc(Cl)cc4)c3)ccc12 | 18.802 |
| O=C(O)Cc1c[nH]c2ccc(OCCCOc3cccc(OCc4ccc(C(F)(F)F)cc4)c3)cc12 | 9.707 |
| O=C(O)Cc1cn(Cc2ccccc2)c2ccc(OCCCOc3cccc(OCc4ccc(F)cc4)c3)cc12 | 16.467 |
